assay: Half life period in rat after (i.v.) administration of a dose of 20 mg/kg; format: ADME, organism-based; design: dose 20 mg/kg, route intravenous; conditions: in vivo, iv
parameter: half-life (min)
One number for each entry, in min.

Input CCn1cc(C(=O)OCC2=C(C(=O)O)N3C(=O)[C@@H](NC(=O)COc4ccccc4)C3SC2)c(=O)c2cc3c(cc21)OCO3 (stereo partly specified) . Output half-life: 13

----------
Kindly supply the reported MIC values for the records listed here.
system: Streptococcus pyogenes; assay: Minimum inhibitory concentration against Streptococcus pyogenes 4; assay type: functional
Numbers only, in µg/mL.

Some entries whose results are on file:
compound: CN1CCN(c2c(F)cc3c(=O)c(C(=O)OCC4=C(C(=O)O)N5C(=O)[C@@H](NC=O)C5SC4)cn(CCF)c3c2F)CC1 (stereo not given in full)
MIC / µg/mL: 0.25
--
compound: CCn1cc(C(=O)OCC2=C(C(=O)O)N3C(=O)[C@@H](NC(=O)COc4ccccc4)C3SC2)c(=O)c2cc(F)c(N3CCSCC3)cc21 (stereo not given in full)
MIC / µg/mL: 4
--
compound: CCn1cc(C(=O)O)c(=O)c2cc(F)c(N3CCN(C=O)CC3)cc21
MIC / µg/mL: 8
--
compound: CN1CCN(c2c(F)cc3c(=O)c(C(=O)OCC4=C(C(=O)O)N5C(=O)[C@@H](NC(=O)/C(=N/OC(C)(C)C(=O)O)c6csc(N)n6)C5SC4)cn(CCF)c3c2F)CC1 (stereo not given in full)
MIC / µg/mL: 0.5
--
compound: CCn1cc(C(=O)O)c(=O)c2ccc(C)nc21
MIC / µg/mL: 128
--
compound: CCn1cc(C(=O)OCC2=C(C(=O)O)N3C(=O)[C@@H](NC(=O)COc4ccccc4)C3SC2)c(=O)c2cc(F)c(-n3cccc3)cc21 (stereo not given in full)
MIC / µg/mL: 2
--
compound: CCn1cc(C(=O)OCC2=C(C(=O)O)N3C(=O)[C@@H](NC(=O)/C(=N/OC)c4csc(N)n4)C3SC2)c(=O)c2cc(F)c(N3CCCC3)cc21 (stereo not given in full)
MIC / µg/mL: 1
--
compound: CCN1CCN(C(=O)NC(C(=O)N[C@@H]2C(=O)N3C(C(=O)O)=C(COC(=O)c4cn(CC)c5cc(N6CCSCC6)c(F)cc5c4=O)CSC23)c2ccccc2)C(=O)C1=O (stereo not given in full)
MIC / µg/mL: 0.016
--
compound: CN1CCN(c2c(F)cc3c(=O)c(C(=O)OCC4=C(C(=O)O)N5C(=O)[C@@H](NC(=O)/C(=N/OCC(=O)O)c6csc(N)n6)C5SC4)cn(CCF)c3c2F)CC1 (stereo not given in full)
MIC / µg/mL: 0.5
--
compound: CO/N=C(/C(=O)N[C@@H]1C(=O)N2C(C(=O)O)=C(COC(=O)c3cn(CCF)c4c(F)c(N5CCN(C)CC5)c(F)cc4c3=O)CSC12)c1csc(N)n1 (stereo not given in full)
MIC / µg/mL: 0.031

# value of MIC, Streptococcus pyogenes, item O=C(COc1ccccc1)N[C@@H]1C(=O)N2C(C(=O)O)=C(COC(=O)c3cn(-c4ccc(F)cc4)c4cc5c(cc4c3=O)OCO5)CSC12 (stereo not given in full) = 2

----------
tested on: Citrobacter freundii; assay: In vitro antibacterial activity was determined against Citrobacter freundii BS-16; assay type: functional
parameter: MIC (µg/mL)
Give bare numbers, in µg/mL.

compound: CCn1cc(C(=O)OCC2=C(C(=O)O)N3C(=O)[C@@H](NC(=O)COc4ccccc4)C3SC2)c(=O)c2cc3c(cc21)OCO3 (stereo not given in full)
parameter: MIC
assay value: 2
--
compound: CCn1cc(C(=O)O)c(=O)c2cc(F)c(N3CCSCC3)cc21
parameter: MIC
assay value: 16
--
compound: CCn1cc(C(=O)O)c(=O)c2cc(F)c(-n3cccc3)cc21 [IRLOXACIN]
parameter: MIC
assay value: 64

Continue with the next compound.
Input CN1CCN(c2c(F)cc3c(=O)c(C(=O)O)cn(CCF)c3c2F)CC1 [FLEROXACIN] . Output MIC: 1

----------
system: Proteus vulgaris; test: Minimum inhibitory concentration against Proteus vulgaris 1028 BC (Class Ic beta-lactamase overproducer); format: functional
parameter: MIC (µg/mL)
Numbers only, in µg/mL.

molecule: CCn1cc(C(=O)OCC2=C(C(=O)O)N3C(=O)[C@@H](NC(=O)Cc4cccs4)C3SC2)c(=O)c2cc(F)c(N3CCN(C=O)CC3)cc21 (stereo partly specified)
parameter: MIC
unit symbol: µg/mL
assay value: 4
//
molecule: CCn1cc(C(=O)OCC2=C(C(=O)O)N3C(=O)[C@@H](NC(=O)COc4ccccc4)C3SC2)c(=O)c2cc(F)c(N3CCN(C=O)CC3)cc21 (stereo partly specified)
parameter: MIC
unit symbol: µg/mL
assay value: 4
//
molecule: CCn1cc(C(=O)OCC2=C(C(=O)O)N3C(=O)[C@@H](NC(=O)Cc4cccs4)C3SC2)c(=O)c2cc3c(cc21)OCO3 (stereo partly specified)
parameter: MIC
unit symbol: µg/mL
assay value: 0.25
//
molecule: CO/N=C(/C(=O)N[C@@H]1C(=O)N2C(C(=O)O)=C(COC(=O)c3cn(CCF)c4c(F)c(N5CCN(C)CC5)c(F)cc4c3=O)CSC12)c1csc(N)n1 (stereo partly specified)
parameter: MIC
unit symbol: µg/mL
assay value: 0.25
//
molecule: CN1CCN(c2c(F)cc3c(=O)c(C(=O)OCC4=C(C(=O)O)N5C(=O)[C@@H](NC=O)C5SC4)cn(CCF)c3c2F)CC1 (stereo partly specified)
parameter: MIC
unit symbol: µg/mL
assay value: 0.5
//
molecule: CCn1cc(C(=O)OCC2=C(C(=O)O)N3C(=O)[C@@H](NC(=O)COc4ccccc4)C3SC2)c(=O)c2cc(F)c(-n3cccc3)cc21 (stereo partly specified)
parameter: MIC
unit symbol: µg/mL
assay value: 16

Please look at the items below and tell me MIC for each one, in order.
1. CCn1cc(C(=O)OCC2=C(C(=O)O)N3C(=O)[C@@H](NC(=O)COc4ccccc4)C3SC2)c(=O)c2cc(F)c(N3CCSCC3)cc21 (stereo partly specified)
2. CCn1cc(C(=O)OCC2=C(C(=O)O)N3C(=O)[C@@H](NC(=O)/C(=N/OC)c4csc(N)n4)C3SC2)c(=O)c2cc(F)c(N3CCN(C=O)CC3)cc21 (stereo partly specified)
3. CCn1cc(C(=O)OCC2=C(C(=O)O)N3C(=O)[C@@H](NC(=O)/C(=N/OC)c4csc(N)n4)C3SC2)c(=O)c2ccc(C)nc21 (stereo partly specified)
4. CCn1cc(C(=O)O)c(=O)c2ccc(C)nc21 [NALIDIXIC ACID]
5. CCN1CCN(C(=O)NC(C(=O)N[C@@H]2C(=O)N3C(C(=O)O)=C(COC(=O)c4cn(CC)c5cc(N6CCSCC6)c(F)cc5c4=O)CSC23)c2ccccc2)C(=O)C1=O (stereo partly specified)

1
8
4
2
64

----------
tested on: Streptococcus pyogenes; test: Minimum inhibitory concentration against Streptococcus pyogenes 4; type: functional
parameter: MIC

Some entries whose results are on file:
compound: CCn1cc(C(=O)OCC2=C(C(=O)O)N3C(=O)[C@@H](NC(=O)/C(=N/OC)c4csc(N)n4)C3SC2)c(=O)c2cc(F)c(N3CCSCC3)cc21 (some centres undefined)
MIC: < 0.008 µg/mL
--
compound: CCn1cc(C(=O)O)c(=O)c2cc3c(cc21)OCO3 [OXOLINIC ACID]
MIC: > 128 µg/mL
--
compound: CO/N=C(\C(=O)N[C@@H]1C(=O)N2C(C(=O)O)=C(COC(C)=O)CS[C@H]12)c1csc(N)n1 [CEFOTAXIME]
MIC: < 0.008 µg/mL

Continue with the next compound.
Input O=C(O)c1cn(-c2ccc(F)cc2)c2cc3c(cc2c1=O)OCO3 . Output MIC: > 128 µg/mL
